B1: FBXO39 (parent)
chain: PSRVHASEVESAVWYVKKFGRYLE

# Variants of: B1
# assay procedure: protein stability index of a GFP-peptide fusion (GPS, HEK-293T) (PSI 1-6); higher = more stable;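 further: lentivirally expressed fusions sorted by FACS into six bins by GFP to DsRed ratio, PSI derived from sequencing read proportions per bin multiplied by bin number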
# setup conditions: c terminus: a fixed tail appended
Values of protein stability index greater than or equal to 2 map to y; values below map to n.

INSERT INTO assay_data (mutations, category_label) VALUES
  ('F19R', 'y'),
  ('K17S', 'y'),
  ('H5N', 'y'),
  ('S11D', 'y'),
  ('V13H', 'y'),
  ('R3Y', 'n'),
  ('V13R', 'y'),
  ('F19W', 'y'),
  ('K18Y', 'n'),
  ('H5M', 'n'),
  ('W14F', 'n'),
  ('L23C', 'y'),
  ('A6C', 'y'),
  ('P1E', 'n'),
  ('V9Y', 'n'),
  ('Y22Q', 'y'),
  ('V13Y', 'n'),
  ('V13E', 'y'),
  ('R21A', 'n'),
  ('K17V', 'n'),
  ('V4D', 'y'),
  ('A6K', 'n'),
  ('P1S', 'n'),
  ('L23K', 'y');
